target: Nuclear receptor subfamily 4 group A member 2 (Homo sapiens) (UniProt P43354); assay: ATG_NURR1_TRANS: Attagene TRANS-FACTORIAL HepG2 Assay for human Nuclear Receptor Related Protein 1 (NURR1) (AID 2282985); conditions: HepG2 Attagene TRANS reporter, mRNA readout
Sequence (P43354 whole entry, looked up): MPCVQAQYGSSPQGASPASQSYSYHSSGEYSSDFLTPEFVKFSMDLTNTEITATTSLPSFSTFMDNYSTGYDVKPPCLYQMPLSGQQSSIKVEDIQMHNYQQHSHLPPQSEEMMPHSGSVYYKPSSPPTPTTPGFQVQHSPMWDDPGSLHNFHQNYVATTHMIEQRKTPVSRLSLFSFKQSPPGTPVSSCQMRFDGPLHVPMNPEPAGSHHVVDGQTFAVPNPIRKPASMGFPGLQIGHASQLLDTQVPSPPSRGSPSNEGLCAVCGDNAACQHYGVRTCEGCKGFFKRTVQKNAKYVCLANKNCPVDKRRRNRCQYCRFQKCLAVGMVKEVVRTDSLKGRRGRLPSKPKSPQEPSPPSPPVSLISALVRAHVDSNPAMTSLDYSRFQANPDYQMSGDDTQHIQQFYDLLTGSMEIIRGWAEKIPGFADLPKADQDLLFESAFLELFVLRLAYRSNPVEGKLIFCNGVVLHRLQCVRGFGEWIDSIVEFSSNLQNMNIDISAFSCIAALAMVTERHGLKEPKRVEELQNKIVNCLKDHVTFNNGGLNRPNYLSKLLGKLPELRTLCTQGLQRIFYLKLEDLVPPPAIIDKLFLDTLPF
Results filed as inconclusive are left out. Calls of active or inactive are those of the source. The calls were made as follows: active = hit-call score of the fitted dose curve at least 0.9, where 1 is the maximum; inconclusive = response in the unintended direction; inactive = score below 0.9.
Thanks in advance; please answer with one of these: yes = active, no = inactive

Incoming: Could you please tell me the result logged for C=C(C)C(=O)OCC1CO1 (centres undefined) in this assay?
Outgoing: no

Incoming: Could you check what this test reported for `CCOP(=S)(S)OCC` ?
Outgoing: no

Incoming: Please state the recorded outcome for this compound: `C=CC(=O)OCC(F)(F)C(F)F`
Outgoing: no

Incoming: Answer briefly: the call reported for `CCCCCCCc1ccc(O)cc1` in this assay.
Outgoing: no

Incoming: Just curious, what result did `CC(C)(C)c1ccccc1OP(=O)(Oc1ccccc1)Oc1ccccc1` get here?
Outgoing: yes

Incoming: What outcome does the record of this test show for O=C(O)C(F)(OC(F)(F)C(F)(F)C(F)(F)F)C(F)(F)F (centres undefined) ?
Outgoing: no

Incoming: Write down the call the test reported for this compound. Item: `Oc1ccc(I)cc1`
Outgoing: no

Incoming: # fetch the recorded call for `Cc1ccc(N)cc1N` here
Outgoing: no

Incoming: I would be grateful if you could indicate the recorded call for `CC(C)Nc1ccc(Nc2ccccc2)cc1` .
Outgoing: no

Incoming: # outcome recorded in this test, key = `CCN(CC)c1ccccc1`
Outgoing: no

Incoming: Field: outcome | Entry: `c1nc[nH]n1`
Outgoing: no

Incoming: Entry `Nc1ccc(Cl)cc1` : call = ?
Outgoing: no

Incoming: Please indicate how the test categorized `CCCN(CCC)c1c([N+](=O)[O-])cc(C(C)C)cc1[N+](=O)[O-]` .
Outgoing: no

Incoming: I'd appreciate the recorded outcome for CCCCOCC1CO1 (centres undefined) from this test.
Outgoing: no

====

assay: Tanguay_ZF_120hpf_PFIN_legacy: (Legacy) Oregon State University Tanguay Lab 120 Hour Post-fertilization zebrafish Assay for Pectoral Fin Malformation (AID 2283648);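 also: each larva judged yes or no for fin defect by brightfield with dead larvae skipped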
Inconclusive results are not listed. Activity calls are given as the source filed them. How the source made its calls: active means hit-call score of the fitted dose curve at least 0.9, where 1 is the maximum; inconclusive means response in the unintended direction; inactive means score below 0.9.
Answer with one of the outcomes active, inactive

Incoming: Hi team, can someone confirm the assay call for `CC(C)(C)c1ccc(O)cc1` ?
Outgoing: inactive

Incoming: Please state the recorded outcome for this compound: `CCC(C)(C)c1ccc(O)cc1`
Outgoing: active

Incoming: Tell me the assay call for `CCCCCCCc1ccc(O)cc1` please.
Outgoing: inactive

Incoming: For this compound, state the assay outcome: `CSC(C)(C)C=NO`
Outgoing: inactive

Incoming: Hi team, can someone confirm the assay call for CCOP(=S)(Oc1ccc([N+](=O)[O-])cc1)c1ccccc1 (centres undefined) ?
Outgoing: inactive

Incoming: Any idea what this test logged for `O=[N+]([O-])c1ccc(Cl)c(Cl)c1` ?
Outgoing: inactive

Incoming: Given `Nc1cc2c3c(c1)C(c1ccccc1)=N[C@@H](NC(=O)c1cccnc1)C(=O)N3CC2` , state the outcome it received in this test.
Outgoing: inactive

Incoming: Give the logged outcome of this assay for the following compound: `CC(Cl)(Cl)C(=O)O`
Outgoing: inactive

Incoming: What classification did `ClC(Cl)c1ccccc1` end up with in this test?
Outgoing: inactive

Incoming: How was O=C(O)C1C(C(=O)O)C2(Cl)C(Cl)=C(Cl)C1(Cl)C2(Cl)Cl (centres undefined) classified in this test?
Outgoing: inactive

Incoming: Write down the call the test reported for this compound. Item: `CCOC(=O)c1ccccc1C(=O)OCC`
Outgoing: inactive

Incoming: Tell me the recorded outcome of this test for `CCCCN(CCCC)N=O` .
Outgoing: inactive

Incoming: Recorded test outcome, item `O=[N+]([O-])c1ccccc1`
Outgoing: inactive

Incoming: Could you kindly confirm the outcome this assay logged for `Cc1ccc([N+](=O)[O-])cc1C` ?
Outgoing: inactive

Incoming: Fill in: this test's call for `c1cc2c3c(cccc3c1)CC2` is ___
Outgoing: inactive

Incoming: GET /call?item= `CCCN(CCC)c1c([N+](=O)[O-])cc(C(C)C)cc1[N+](=O)[O-]` returns the recorded outcome of this test.
Outgoing: inactive

Incoming: For `CCCCc1ccccc1` , which call appears in the assay record?
Outgoing: inactive

Incoming: Please let me know the test result on file for `CC(C)(C)OOC(C)(C)C` .
Outgoing: inactive

Incoming: Assay result, entry `c1ccc(OP(Oc2ccccc2)Oc2ccccc2)cc1` — outcome?
Outgoing: inactive

====

molecular target: Cellular tumor antigen p53 (Homo sapiens) (UniProt P04637); assay: TOX21_p53_BLA_p3_ratio: Tox21 HCT-116 p53 Agonism Beta-lactamase Assay, Ratio, Phase 3 (AID 2283596)
Sequence (P04637 whole entry, looked up): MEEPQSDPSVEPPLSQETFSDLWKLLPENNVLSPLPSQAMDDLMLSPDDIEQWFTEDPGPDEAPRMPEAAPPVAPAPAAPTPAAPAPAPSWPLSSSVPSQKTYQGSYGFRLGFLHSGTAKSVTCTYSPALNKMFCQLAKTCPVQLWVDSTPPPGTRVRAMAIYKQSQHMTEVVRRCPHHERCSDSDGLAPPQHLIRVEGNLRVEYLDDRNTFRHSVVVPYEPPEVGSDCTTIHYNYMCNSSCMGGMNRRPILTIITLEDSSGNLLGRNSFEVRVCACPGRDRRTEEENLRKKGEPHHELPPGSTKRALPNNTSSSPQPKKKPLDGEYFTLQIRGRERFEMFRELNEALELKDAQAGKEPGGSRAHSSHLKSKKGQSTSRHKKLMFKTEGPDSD
Results filed as inconclusive are left out. Activity calls are given as the source filed them. The calls were made as follows: active = hit-call score of the fitted dose curve at least 0.9, where 1 is the maximum; inconclusive = response in the unintended direction; inactive = score below 0.9.
Permitted responses: yes (1) for active, no (0) for inactive

Incoming: Please share the test call associated with `FC(F)(F)c1ccc(Cl)cc1` .
Outgoing: no (0)

Incoming: Dear colleague, could you share the recorded outcome for `CC1(C)CN=C(NN=C(/C=C/c2ccc(C(F)(F)F)cc2)/C=C/c2ccc(C(F)(F)F)cc2)NC1` when you have a moment?
Outgoing: yes (1)

Incoming: Could you please tell me the result logged for `O=P(Oc1ccccc1)(Oc1ccccc1)Oc1ccccc1` in this assay?
Outgoing: no (0)

Incoming: # outcome recorded in this test, key = CC(Cc1ccc(OCC(=O)O)cc1)NCC(O)c1csc(C(F)(F)F)n1 (stereo not given)
Outgoing: no (0)

Incoming: Dear colleague, could you share the recorded outcome for CCCCC(CC)COC(=O)c1c(Br)c(Br)c(Br)c(Br)c1C(=O)OCC(CC)CCCC (stereo not given) when you have a moment?
Outgoing: no (0)

Incoming: Please state the recorded outcome for this molecule: `O=c1ssc(Cl)c1Cl`
Outgoing: yes (1)

Incoming: Hello, I am checking results. What call was entered for `CCN(CC)C1CCCCC1` ?
Outgoing: no (0)

Incoming: Called result for `CO/N=C(/C(=O)OC)c1ccccc1COc1ccccc1C`
Outgoing: no (0)

Incoming: Would you mind telling me which call this test gave `Cc1ccc(N)cc1N` ?
Outgoing: no (0)

Incoming: Lab log entry: `c1cc2c3c(cccc3c1)CC2` — outcome as called in the assay?
Outgoing: no (0)

Incoming: Could you please tell me the result logged for `C=CC(=O)OCC(CC)(COC(=O)C=C)COC(=O)C=C` in this assay?
Outgoing: no (0)

Incoming: Please let me know the test result on file for `CCOP(=S)(S)OCC` .
Outgoing: no (0)

Incoming: Call for entry `CCCCN(CCCC)N=O` :
Outgoing: no (0)

Incoming: Test call for this molecule, please: `CC(=O)CCc1ccc2c(c1)OCO2`
Outgoing: no (0)

Incoming: Answer briefly: the call reported for `CC(C)(C)OOC(C)(C)C` in this assay.
Outgoing: no (0)

====

read-out: Cytochrome P450 2C19 (Homo sapiens) (UniProt P33261); test: LTEA_HepaRG_CYP2C19: Life Technologies and Expression Analysis (LTEA) Assay for CYP2C19 using HepaRG (AID 2283482); settings: mRNA level, 48 h; actives raise or lower the signal
Sequence (P33261 whole entry, looked up): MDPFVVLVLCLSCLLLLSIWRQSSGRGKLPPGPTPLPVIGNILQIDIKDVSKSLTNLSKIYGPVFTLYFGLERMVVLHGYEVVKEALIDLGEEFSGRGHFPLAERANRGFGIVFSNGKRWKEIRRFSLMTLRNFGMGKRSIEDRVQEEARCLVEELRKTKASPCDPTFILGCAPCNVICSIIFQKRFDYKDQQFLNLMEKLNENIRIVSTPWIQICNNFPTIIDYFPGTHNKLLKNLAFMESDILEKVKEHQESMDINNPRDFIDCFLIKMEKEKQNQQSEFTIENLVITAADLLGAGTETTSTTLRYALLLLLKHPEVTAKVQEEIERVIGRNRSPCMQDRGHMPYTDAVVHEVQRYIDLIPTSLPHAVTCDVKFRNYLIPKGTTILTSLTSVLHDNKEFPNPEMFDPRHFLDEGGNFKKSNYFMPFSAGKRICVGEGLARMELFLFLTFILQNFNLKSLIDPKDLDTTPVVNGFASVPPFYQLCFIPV
Activity calls are given as the source filed them. The calls were made as follows: active = hit-call score of the fitted dose curve at least 0.9, where 1 is the maximum; inactive = score below 0.9.
Permitted responses: true (active), false (inactive)

Incoming: Recorded test call requested for `CCCCN(CCCC)N=O`
Outgoing: false

Incoming: # outcome recorded in this test, key = `CCCCN(CCCC)SN(C)C(=O)Oc1cccc2c1OC(C)(C)C2`
Outgoing: true

Incoming: Assay outcome for `[N-]=[N+]=[N-]` : what was it?
Outgoing: false

Incoming: Call for entry O=C(O)C1C(C(=O)O)C2(Cl)C(Cl)=C(Cl)C1(Cl)C2(Cl)Cl (configuration not stated) :
Outgoing: false

Incoming: Called result for `Nc1ccc(Cl)cc1`
Outgoing: false

Incoming: // return assay outcome for `CCN(CC)c1ccccc1`
Outgoing: false

Incoming: In this assay, the call recorded for `CSC(C)(C)C=NO` was what?
Outgoing: false

====

experiment: ATG_BRE_CIS: Attagene CIS-FACTORIAL HepG2 Assay for human Bone Morphogenetic Protein (BMP) Response Element (BRE) (AID 2282933); conditions: HepG2 BMP response element reporter, Attagene transcription factor profiling; actives raise or lower the signal
Calls of active or inactive are those of the source. Rule for the calls: active = hit-call score of the fitted dose curve at least 0.9, where 1 is the maximum; inactive = score below 0.9.
Could you please pick one outcome from this set? active, inactive

Incoming: // param item: `C=CC(=O)OCC(F)(F)C(F)F` ; yields the recorded call
Outgoing: inactive

Incoming: Query: recorded result category for `CO/N=C(/C(=O)OC)c1ccccc1COc1ccccc1C` in this test
Outgoing: active

Incoming: Record request — test call for `CN(C)C(=O)Cl`
Outgoing: inactive

Incoming: For `CCN(CC)c1ccccc1` , what call appears in the results of this test?
Outgoing: inactive

Incoming: Hi team, can someone confirm the assay call for `[N-]=[N+]=[N-]` ?
Outgoing: inactive

====

assay: BSK_3C_VCAM1: BioMAP Diversity Plus: 3C Assay for Vascular cell adhesion molecule 1 (VCAM1) Biomarker Activity (AID 2282999); details: BioMAP 3C HUVEC, VCAM1 ELISA, cytokine-stimulated; actives raise or lower the signal
The source made the active and inactive calls. The calls were made as follows: active = hit-call score of the fitted dose curve at least 0.9, where 1 is the maximum; inactive = score below 0.9.
Please reply with one of these outcomes: 1 (yes) = active, 0 (no) = inactive

Incoming: Can you look up the reported call for `CC(Cl)(Cl)C(=O)O` for me?
Outgoing: 0 (no)

Incoming: Given `CCOP(=S)(OCC)SCSCC` , state the outcome it received in this test.
Outgoing: 0 (no)

Incoming: # fetch the recorded call for `CCOC(=O)c1ccccc1C(=O)OCC` here
Outgoing: 0 (no)

Incoming: Entry `COP(=O)(O)OC` : call = ?
Outgoing: 0 (no)

Incoming: Just curious, what result did `CCOS(=O)(=O)OCC` get here?
Outgoing: 0 (no)

Incoming: For this compound, state the assay outcome: `CCCN(CCC)c1c([N+](=O)[O-])cc(C(C)C)cc1[N+](=O)[O-]`
Outgoing: 1 (yes)

Incoming: Outcome? `Cc1ccc([N+](=O)[O-])cc1C`
Outgoing: 0 (no)

Incoming: Just curious, what result did `COP(=O)(CCC(=O)NCO)OC` get here?
Outgoing: 0 (no)

Incoming: Per the assay record, what outcome was assigned to FC(F)(F)C(F)(C(F)(F)F)C(F)(F)C(F)(F)CC1CO1 (configuration not stated) ?
Outgoing: 0 (no)

Incoming: What call does the record list for `N#Cc1c(-c2ccc(Cl)cc2)[nH]c(C(F)(F)F)c1Br` ?
Outgoing: 1 (yes)

Incoming: Record lookup: outcome of this test for O=P(OCC(Br)CBr)(OCC(Br)CBr)OCC(Br)CBr (configuration not stated) ?
Outgoing: 1 (yes)

Incoming: Call for entry `CCCCCCCc1ccc(O)cc1` :
Outgoing: 1 (yes)

Incoming: Check the results log: what was the call for `CCCCN(CCCC)N=O` ?
Outgoing: 0 (no)

Incoming: Tell me the recorded outcome of this test for CCOP(=S)(NC(C)C)Oc1ccccc1C(=O)OC(C)C (configuration not stated) .
Outgoing: 0 (no)

Incoming: Test call, this compound: `O=C(O)C(F)(F)C(F)(F)C(=O)O`
Outgoing: 0 (no)

Incoming: Short answer needed: outcome of this test for `CN(C)C(=O)Cl` ?
Outgoing: 0 (no)

Incoming: Name the outcome recorded for `CCOP(=S)(OCC)SCS(=O)(=O)CC` in the assay.
Outgoing: 0 (no)

Incoming: // return assay outcome for `c1ccc2c(c1)sc1ccccc12`
Outgoing: 0 (no)

Incoming: How was O=S1(=O)OCC2C(CO1)C1(Cl)C(Cl)=C(Cl)C2(Cl)C1(Cl)Cl (configuration not stated) classified in this test?
Outgoing: 0 (no)

Incoming: Any idea what this test logged for `Cc1ccc2c(c1N)C(=O)c1ccccc1C2=O` ?
Outgoing: 0 (no)

Incoming: Recorded test call requested for `CCOP(=S)(OCC)SCn1nnc2ccccc2c1=O`
Outgoing: 0 (no)

Incoming: Short answer needed: outcome of this test for `O=[N+]([O-])c1ccccc1` ?
Outgoing: 0 (no)

Incoming: What did the test return for `CCOP(=S)(S)OCC` ?
Outgoing: 0 (no)

Incoming: Answer briefly: the call reported for `Nc1cc2c3c(c1)C(c1ccccc1)=N[C@@H](NC(=O)c1cccnc1)C(=O)N3CC2` in this assay.
Outgoing: 0 (no)

Incoming: Any idea what this test logged for `CCC(C)(C)c1ccc(O)cc1` ?
Outgoing: 0 (no)

Incoming: Hi, do you know how `O=c1ssc(Cl)c1Cl` came out in this test?
Outgoing: 1 (yes)

Incoming: How was `ClC(Cl)(Cl)c1ccccc1` classified in this test?
Outgoing: 0 (no)

Data origin, for the record: PubChem BioAssay (EPA / NIEHS)
